# protein stability index listing for each entry below
ASSAY_METHOD_TEXT: protein stability index of a GFP-peptide fusion (yeast GPS) (PSI 1-4); higher = more stable; sorted into four equal gates, so the index is relative within each strain
STATED_CONDITIONS: san1∆
Output spec: single numeric token, no unit.

Check out these entries, answers already filled in.
>  <SEQUENCE_TEXT>
RQMKDVNAPLPTPFKVD [RPN2]

>  <protein stability index>
2.79

$$$$
>  <SEQUENCE_TEXT>
AAELLDKRIVISIDSWP [DIS3]

>  <protein stability index>
1.55

$$$$

Now turn to the next sequence.
For record VRELGILCIFEGEKCHP [SEC65] the listed protein stability index is 2.67

* * *

ASSAY_METHOD_TEXT: protein stability index of a GFP-peptide fusion (yeast GPS) (PSI 1-4); higher = more stable; sorted into four equal gates, so the index is relative within each strain
STATED_CONDITIONS: pdr5∆
OBSERVABLE: protein stability index
Reply with just the number.

Known results for sequences:
>  <SEQUENCE_TEXT>
LSVMCGCGTVKRFNIGA [RPR2]

>  <protein stability index>
2.97

$$$$
>  <SEQUENCE_TEXT>
ELDKREDMIDQVSKKLS [SMC3]

>  <protein stability index>
3

$$$$
>  <SEQUENCE_TEXT>
FLKVKGLVKQHLDSFNY [RET1]

>  <protein stability index>
3.18

$$$$
>  <SEQUENCE_TEXT>
LMEASDAFRVHICGICG [RPB2]

>  <protein stability index>
1.83

$$$$

Field protein stability index (entry LIQLGVKPLESSAKRSK [SRP72] ) reads 2.97

For record VMLRLLLVVIFKKTLRS [SRB4] the listed protein stability index is 1.56

* * *

# maps each entry to its protein stability index
ASSAY_METHOD_TEXT: protein stability index of a GFP-peptide fusion (yeast GPS) (PSI 1-4); higher = more stable; sorted into four equal gates, so the index is relative within each strain
STATED_CONDITIONS: san1∆
Give the figure only, with no unit attached.

>  <SEQUENCE_TEXT>
NVRDDMKPSDNISTNTN [SSN2]

>  <OBSERVABLE>
protein stability index

>  <OBSERVED_VALUE>
2.88

$$$$
>  <SEQUENCE_TEXT>
FLNDVIPTTKNLRLLVE [DLS1]

>  <OBSERVABLE>
protein stability index

>  <OBSERVED_VALUE>
2.88

$$$$
>  <SEQUENCE_TEXT>
PYDSNNSNTNLNSLSPQ [SWI1]

>  <OBSERVABLE>
protein stability index

>  <OBSERVED_VALUE>
2.76

$$$$

Note to self: protein stability index recorded for GNDTISKFYNMKQPYVF [SSN2] was 3.2

For QTGTRRNSKLLNTKSIQ [MCD1] the sequence record lists protein stability index as 3.05

Item: IDLLTFQYGSRLPTFLK [RPP1] | protein stability index: 1.6

Reported protein stability index of YQVEYAFKATNQTNINS [SCL1] : 2.99

* * *

ASSAY_METHOD_TEXT: protein stability index of a GFP-peptide fusion (yeast GPS) (PSI 1-4); higher = more stable; sorted into four equal gates, so the index is relative within each strain
STATED_CONDITIONS: ubr1∆
YES means recorded protein stability index is 3 or above; NO means it is below 3.

>  <SEQUENCE_TEXT>
YQSLKQIVQVLKQPPFQ [SSN8]

>  <ASSIGNED_CATEGORY>
NO

$$$$
>  <SEQUENCE_TEXT>
PGKGILTTAREHHSSVK [FAS2]

>  <ASSIGNED_CATEGORY>
YES

$$$$
>  <SEQUENCE_TEXT>
GGSNYMSNLPFGLGYGD [RPC31]

>  <ASSIGNED_CATEGORY>
YES

$$$$
>  <SEQUENCE_TEXT>
FRVQSQSNYGIYSSDAQ [NUT1]

>  <ASSIGNED_CATEGORY>
NO

$$$$

Ask | Please check the record LHKRLHGVSFKKRAPRA [RPL31A] and state if its protein stability index is at or above 3.
Reply | YES

* * *

ASSAY_METHOD_TEXT: protein stability index of a GFP-peptide fusion (yeast GPS) (PSI 1-4); higher = more stable; sorted into four equal gates, so the index is relative within each strain
STATED_CONDITIONS: san1∆
OBSERVABLE: protein stability index
No unit in the answer, please; the number alone is enough.

>  <SEQUENCE_TEXT>
SWNESEDTLSGYDPIVS [PRP28]

>  <OBSERVED_VALUE>
3.19

$$$$
>  <SEQUENCE_TEXT>
IMVLDASIGQAAEQQSK [SRP54]

>  <OBSERVED_VALUE>
3.18

$$$$
>  <SEQUENCE_TEXT>
LKKDIESLRGILHVRAQ [SRP72]

>  <OBSERVED_VALUE>
2.11

$$$$

Briefly, protein stability index measured for REKVRKLSQYVQEMALG [FAS2] : 3.15

Short answer for NAKESNYTDLIWFPEDF [MED1] : protein stability index was 3.17

Entry QIRSADEPMTTFYKCVN [RPC11] — recorded protein stability index = 2.2

// VRTHMRNMIIVPEMIGS [RPS15] : protein stability index value = 1.39

Entry DNGGTILGIAGEDFAVL [PRE7] , protein stability index reported as 3.34

* * *

ASSAY_METHOD_TEXT: protein stability index of a GFP-peptide fusion (yeast GPS) (PSI 1-4); higher = more stable; sorted into four equal gates, so the index is relative within each strain
STATED_CONDITIONS: ubr1∆
Label Met for high-side protein stability index (at or above 3) and Not met for low-side protein stability index (below it).

For orientation, consider the following solved cases.
>  <SEQUENCE_TEXT>
NYNDLIVNYEDLATTQA [BRN1]

>  <ASSIGNED_CATEGORY>
Met

$$$$
>  <SEQUENCE_TEXT>
TSADLKSKAEELTQVPS [UBP6]

>  <ASSIGNED_CATEGORY>
Met

$$$$
>  <SEQUENCE_TEXT>
RLLITGTPLQNNLHELW [ISW2]

>  <ASSIGNED_CATEGORY>
Not met

$$$$
>  <SEQUENCE_TEXT>
KSKILRKVVFPFQLDVA [UBP6]

>  <ASSIGNED_CATEGORY>
Not met

$$$$
>  <SEQUENCE_TEXT>
LASNFDNFDYFNQRDGE [MED1]

>  <ASSIGNED_CATEGORY>
Met

$$$$

Ask | API: above_or_equal(metric=protein stability index, cutoff=3) for item ENNDDALDLDLDLFDPD [MED4]
Reply | Met

Ask | Quick check: does LINIDTSIANAFRRIMI [RPC40] have protein stability index greater than or equal to 3?
Reply | Not met

* * *

ASSAY_METHOD_TEXT: protein stability index of a GFP-peptide fusion (yeast GPS) (PSI 1-4); higher = more stable; sorted into four equal gates, so the index is relative within each strain
STATED_CONDITIONS: san1∆
Class key for protein stability index values: bucket 1 = under 2, bucket 2 = from 2 up to 3, bucket 3 = 3 and over

Example entries begin here.
>  <SEQUENCE_TEXT>
TWSLILNECLKTIQINN [YML031W/NDC1]

>  <ASSIGNED_CATEGORY>
bucket 1

$$$$
>  <SEQUENCE_TEXT>
VKIGDIEKWTANLLPAR [RPS22A]

>  <ASSIGNED_CATEGORY>
bucket 2

$$$$

Ask | Input NMMEHWDYLQLTVAMYI [RPO31] ; output its category
Reply | bucket 2

Ask | Which class is correct for the following sequence? QHYLDTATAPRLFDKLK [QCR6]
Reply | bucket 2

Ask | Hi there! Could you help me figure out the category for TAKETKMLMNLHKEQWQ [RPN11] please?
Reply | bucket 3

Ask | Returns: class label. Input: LIIKYQKYWESMRIQIL [GAL11]
Reply | bucket 1

* * *

ASSAY_METHOD_TEXT: protein stability index of a GFP-peptide fusion (yeast GPS) (PSI 1-4); higher = more stable; sorted into four equal gates, so the index is relative within each strain
STATED_CONDITIONS: ubr1∆
As shown below, each of these sequences has a reported protein stability index value.

Example entries and their recorded answers appear below.
>  <SEQUENCE_TEXT>
KKSVLKQVQDFEENDHP [COR1]

>  <protein stability index>
2.66

$$$$
>  <SEQUENCE_TEXT>
PLRDNGLLDESPNRLRV [YML031W/NDC1]

>  <protein stability index>
3.39

$$$$
>  <SEQUENCE_TEXT>
YQSRGIDAMKAVAEAYN [RPN6]

>  <protein stability index>
2.65

$$$$
>  <SEQUENCE_TEXT>
MPGMPNMPGMPKVTPQM [SRP54]

>  <protein stability index>
3.34

$$$$
>  <SEQUENCE_TEXT>
ANMATVPSTTNVNMTVN [MED6]

>  <protein stability index>
2.93

$$$$

Please fill in: protein stability index reported for LVSDSEIIDLNLHSFTK [POP6] = 2.71

Entry QFLEQGLSIHPTQITQY [SRP68] — recorded protein stability index = 2.17

Lab book: protein stability index of LRSDIPCLSRSCTKCPQ [DIS3] noted as 2.92

protein stability index for LVDDENEPSQSLISTRN [BRN1] is 3.15
